I'd be grateful if you could share measured T/C for these entries.
test system: BDF1 mice, P388 leukemia ip, median survival T/C; experiment: NCI In Vivo Anticancer Drug Screen. Data for tumor model P388 Leukemia (intraperitoneal) in B6D2F1 (BDF1) mice; settings: endpoint: median survival time; dose: 100.0 mg/kg/injection; schedule: Q04DX003 (ip); vehicle: Klucel (hydroxypropylcellulose) (HPC); higher = longer survival
Inconclusive results and toxic doses are left out. Residues, ends and D or L forms follow the SMILES beside them. *: point of attachment. Cbz = O=C(OCc1ccccc1)*; Bn = c1ccc(C*)cc1; βAla = NCCC(=O)O

NC(=O)C1CCCC12NC(=O)NC2=O (stereo not given)    109 % of control
CCN(CC)c1cc(Cl)c(C=O)cc1Br    104 % of control
COc1cc(OC)cc(C(N)=O)c1    95 % of control
CC1(C)C2CC3C(C(=O)O)CCCC3(C2)C1Br (stereo not given)    90 % of control
CCCCNC(=O)OC    95 % of control
CP(C)c1ccccc1    123 % of control
O=[N+]([O-])c1cc([N+](=O)[O-])c(NN(c2ccccc2)c2cccc3ccccc23)c([N+](=O)[O-])c1    91 % of control
COc1ccc2nc3c4ccccc4scc-3c2c1    100 % of control
CC(CC(=O)O)C(C(=O)O)C(=O)O (stereo not given)    91 % of control
COc1cc(C)ccc1C(=O)c1ccc(C)cc1OC    90 % of control

For every item in the list below, what is its measured T/C?
1. Cc1c(Cl)c(Cl)c(NS(=O)(=O)c2ccccc2)c(NS(=O)(=O)c2ccccc2)c1Cl
2. Nc1nc(=S)c2[nH]c(N=Nc3ccc(S(=O)(=O)Nc4ccccn4)cc3)nc2[nH]1
3. CCCCCCCCC(=O)CCC
4. CCC(=O)Nc1ccc(C)cc1C
5. CCOC(=O)C1C(=O)C2CCc3c(ccc4ccccc34)N2C1=O (stereo not given)
6. CCCCCCCCCCCCC1CC(=O)OC1=O (stereo not given)
7. COC(=O)C(CSCc1ccccc1)NC(=O)C(CSCc1ccccc1)NC(=O)CCNC(=O)OCc1ccccc1 (stereo not given) ({Cbz-βAla}-Cys(Bn)-Cys(Bn)-OMe; configuration not given here)
8. CCN(CC)c1ccc(/C=C/c2ccncc2)cc1

### Response
1. 90 % of control
2. 116 % of control
3. 109 % of control
4. 104 % of control
5. 95 % of control
6. 104 % of control
7. 95 % of control
8. 100 % of control

Give me T/C for each of these compounds, listed below.
1. CSC(c1ccccc1)=[N+]1CCOCC1
2. CCCCCCCCCCCCCCOc1ccc(Cc2ccccc2)cc1
3. C=C(NC(C)=O)C(=O)O
4. O=C1c2ccccc2S(=O)(=O)N1CCN1C(=O)c2ccccc2S1(=O)=O

### Response
1. 100 % of control
2. 100 % of control
3. 95 % of control
4. 95 % of control

Batch of 3 compounds: report T/C for each.
1. O=[N+]([O-])c1ccc2c3c(cccc13)-c1ccccc1-2
2. O=C(O)c1ccccc1C(=O)Nc1ccc([N+](=O)[O-])cc1Cl
3. Cc1ccc2c(c1)=N/C(=N\c1nc(O)c(O)[nH]1)N=2

### Response
1: 90 % of control; 2: 100 % of control; 3: 104 % of control
